System tested: MAO B (Homo sapiens, UniProt P27338)
Construct: expressed in transfected cells; host or cells: COS-7 (African green monkey), riboflavin-containing (Rib+) or riboflavin-depleted (Rib-), transient electroporation
Sequence (P27338 1-520): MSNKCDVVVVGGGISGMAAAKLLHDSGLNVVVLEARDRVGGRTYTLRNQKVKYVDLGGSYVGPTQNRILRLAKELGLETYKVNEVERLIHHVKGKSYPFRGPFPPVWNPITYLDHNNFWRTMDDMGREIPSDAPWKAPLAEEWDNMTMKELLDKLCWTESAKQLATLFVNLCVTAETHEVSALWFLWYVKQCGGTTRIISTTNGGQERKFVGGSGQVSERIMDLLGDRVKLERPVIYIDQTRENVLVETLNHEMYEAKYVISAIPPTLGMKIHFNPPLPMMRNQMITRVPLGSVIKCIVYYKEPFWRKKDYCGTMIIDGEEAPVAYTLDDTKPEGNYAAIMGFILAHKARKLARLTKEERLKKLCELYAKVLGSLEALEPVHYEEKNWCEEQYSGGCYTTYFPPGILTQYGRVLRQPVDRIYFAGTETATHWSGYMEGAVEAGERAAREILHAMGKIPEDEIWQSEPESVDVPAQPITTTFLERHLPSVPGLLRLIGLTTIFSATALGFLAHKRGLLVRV
Assay name: Quantitation of expressed MAO B protein by ELISA in transfected COS-7 cells
Type: cell-based
Parameters: unit not given here
Settings: cofactor added with MAO B cDNA into Rib^- COS-7 cells; 48 hours; mean ± SE, three experiments
Measured MAO B Expressed of individual entries
Answer with a number only.

The cases that follow already have their MAO B Expressed on record.
1. Cc1cc2nc3c(=O)[nH]c(=O)nc-3n(C[C@H](O)[C@H](O)[C@H](O)COP(=O)(O)OP(=O)(O)OC[C@H]3O[C@@H](n4cnc5c(N)ncnc54)[C@H](O)[C@@H]3O)c2cc1C [FAD]: 0.86
2. Cc1cc2nc3c(=O)[nH]c(=O)nc-3n(C[C@H](O)[C@H](O)[C@H](O)CO)c2cc1CO [8α-OH Rib, 8α-hydroxyriboflavin]: 0.95
3. Cc1cc2nc3c(=O)[nH]c(=O)nc-3n(C[C@H](O)[C@H](O)[C@H](O)COP(=O)(O)O)c2cc1C [FMN]: 0.81
4. Cc1cc2nc3c(=O)[nH]c(=O)nc-3n(C[C@H](O)[C@H](O)[C@H](O)CO)c2cc1C [Riboflavin, riboflavin]: 0.90

# context switch: different molecule, same MAO B Expressed
Prompt line: Please supply the value of reported MAO B Expressed for the item NC(=O)c1ccc[n+]([C@@H]2O[C@H](COP(=O)(O)OP(=O)(O)OC[C@H]3O[C@@H](n4cnc5c(N)ncnc54)[C@H](O)[C@@H]3O)[C@@H](O)[C@H]2O)c1 [NAD^+]
Response line: 1.14

###

System tested: MAO B (Homo sapiens)
Construct: expressed in transfected cells; host or cells: COS-7 (African green monkey), riboflavin-containing (Rib+) or riboflavin-depleted (Rib-), transient electroporation
Assay name: FAD coupling in intact cells: MAO B enzymatic activity after electroporation of MAO B cDNA with cofactor into Rib^- COS-7 cells ([^14 C] benzylamine substrate)
Format: cell-based
Set-up: concentration or dose not given beside the values
Settings: relative to holo-MAO B expressed in Rib^+ COS-7 cells; 2880 min
Experimental endpoint: Percent of Holo-MAO B Activity (%)
Output spec: scalar in %, unitless text.

1. Cc1cc2nc3c(=O)[nH]c(=O)nc-3n(C[C@H](O)[C@H](O)[C@H](O)CO)c2cc1CO [8α-OH Rib, 8α-hydroxyriboflavin]: 39.8

Prompt line: Provide only the value of recorded Percent of Holo-MAO B Activity for NC(=O)c1ccc[n+]([C@@H]2O[C@H](COP(=O)(O)OP(=O)(O)OC[C@H]3O[C@@H](n4cnc5c(N)ncnc54)[C@H](O)[C@@H]3O)[C@@H](O)[C@H]2O)c1
Response line: 1.8

Prompt line: Give Percent of Holo-MAO B Activity for Cc1cc2nc3c(=O)[nH]c(=O)nc-3n(C[C@H](O)[C@H](O)[C@H](O)CO)c2cc1C
Response line: 76.1
